System: CEM cells HIV-1 protection, formazan growth assay
Test: NCI AIDS Antiviral Assay
Where a SMILES comes first, the peptide text is derived from it. The star is where a group is joined. Cbz = O=C(OCc1ccccc1)*; OBn = c1ccc(CO*)cc1
reported.metric: EC50

[[record]]
compound = "COc1ccc(N2CC(=O)N(C(=O)COc3ccc(OCC(=O)N4C(=O)CN(c5ccc(OC)cc5)C4=S)cc3)C2=S)cc1"
target = "CEM cells HIV-1 protection, formazan growth assay"
reported_metric = "EC50"
reported = "> 200 µM"

[[record]]
compound = "C#CCNC(=O)NC(CCCNC(=O)OCc1ccccc1)C(=O)OCc1ccccc1 (centres undefined)"
target = "CEM cells HIV-1 protection, formazan growth assay"
reported_metric = "EC50"
reported = "> 83.2 µM"

[[record]]
compound = "CCC(=O)OC1CCn2c1nc1c2C(=O)C(C)=C(N2CC2)C1=O (centres undefined)"
target = "CEM cells HIV-1 protection, formazan growth assay"
reported_metric = "EC50"
reported = "> 200 µM"

[[record]]
compound = "OC1(c2ccccc2)c2ccccc2Oc2ccccc21"
target = "CEM cells HIV-1 protection, formazan growth assay"
reported_metric = "EC50"
reported = "> 200 µM"

[[record]]
compound = "COC(=O)C(Cc1ccc(O)cc1)NC(=O)C(CC(=O)OCc1ccccc1)NC(=O)OCc1ccccc1 (centres undefined) (Cbz-Asp(OBn)-Tyr-OMe; configuration not given here)"
target = "CEM cells HIV-1 protection, formazan growth assay"
reported_metric = "EC50"
reported = "> 200 µM"

[[record]]
compound = "O=[N+]([O-])c1ccc(C(Cl)C(Cl)c2ccc(C(Cl)C(Cl)c3ccc([N+](=O)[O-])cc3[N+](=O)[O-])cc2)c([N+](=O)[O-])c1 (centres undefined)"
target = "CEM cells HIV-1 protection, formazan growth assay"
reported_metric = "EC50"
reported = "> 12 µM"

[[record]]
compound = "CCC(=O)C[P+](c1ccccc1)(c1ccccc1)c1ccccc1"
target = "CEM cells HIV-1 protection, formazan growth assay"
reported_metric = "EC50"
reported = "> 200 µM"

[[record]]
compound = "O=Nc1cc(S(=O)(=O)O)c2ccccc2c1O"
target = "CEM cells HIV-1 protection, formazan growth assay"
reported_metric = "EC50"
reported = "> 200 µM"

[[record]]
compound = "CCCc1cc(=O)oc2c3c(c4c(c12)OC(C)(C)[C@@H](OC(=O)c1ccc(Br)cc1)[C@H]4OC(=O)c1ccc(Br)cc1)O[C@@H](C)[C@H](C)[C@@H]3OC(=O)c1ccc(Br)cc1"
target = "CEM cells HIV-1 protection, formazan growth assay"
reported_metric = "EC50"
reported = "> 200 µM"


###

System: CEM cells HIV-1 protection, formazan growth assay
Test: NCI AIDS Antiviral Assay
Conditions: measured here: growth of uninfected CEM cells
reported.metric: log10(IC50) (log10 of the value in µM)

[[record]]
molecule = "COCc1cn(C2C=CC(CO)O2)c(=O)[nH]c1=O (stereo not given)"
target = "CEM cells HIV-1 protection, formazan growth assay"
reported_metric = "log10(IC50)"
reported = 2.09

[[record]]
molecule = "CCOC(=O)/C(=C\\c1cccc(C#N)c1)C(C)=O"
target = "CEM cells HIV-1 protection, formazan growth assay"
reported_metric = "log10(IC50)"
reported = 1.45

[[record]]
molecule = "N#CN=C(N)c1sc2nc3c(c(-c4ccc(Br)cc4)c2c1N)CCCC3"
target = "CEM cells HIV-1 protection, formazan growth assay"
reported_metric = "log10(IC50)"
reported = 0.85

[[record]]
molecule = "O=C(c1nc2ccccc2[nH]c1=O)C(O)c1ccco1 (stereo not given)"
target = "CEM cells HIV-1 protection, formazan growth assay"
reported_metric = "log10(IC50)"
reported = 2.58

[[record]]
molecule = "CSc1nc(C)cc(N(C)c2ccccc2)n1"
target = "CEM cells HIV-1 protection, formazan growth assay"
reported_metric = "log10(IC50)"
reported = 1.51


###

System: CEM cells HIV-1 protection, formazan growth assay
Assay: NCI AIDS Antiviral Assay
pEC50: −log10 of the molar value.
pEC50 listing for selected compounds.
reported.metric: pEC50

[[record]]
compound = "CC1CC/C(=C\\c2ccc(Cl)cc2)C(=O)/C1=C\\c1ccc(Cl)cc1 (stereo not given)"
reported = "< 3.70"

[[record]]
compound = "CCOC(=O)c1[nH]cc(C)c1-c1cccn1-c1ccc(Cl)cc1[N+](=O)[O-]"
reported = "< 3.70"

[[record]]
compound = "COc1cc2cc3c(c(-c4ccc5c(c4)OCO5)c2c(OC)c1OC)COC3=O"
reported = "< 4.46"

[[record]]
compound = "O=C(CNc1c(Cl)cccc1Cl)NC1C=Cc2ccc(S(=O)(=O)Nc3c(Cl)cccc3Cl)cc2C1=O (stereo not given)"
reported = "< 3.70"

[[record]]
compound = "COC(=O)C(C)(N=Cc1ccccc1)c1ccccc1 (stereo not given)"
reported = "< 3.70"


###

pIC50 listing for selected compounds.
System: CEM cells HIV-1 protection, formazan growth assay
Experiment: NCI AIDS Antiviral Assay
Conditions: measured here: growth of uninfected CEM cells
pIC50: −log10 of the molar value.
reported.metric: pIC50

[[record]]
compound = "COC(=O)/C(C#N)=C/n1ccc(=O)[nH]c1=S"
reading_qualifier = "<"
reported = 3.70

[[record]]
compound = "Nc1nn2cc3c(nc2c1N=Nc1ccc(Cl)cc1)CCCCC3"
reading_qualifier = "<"
reported = 3.82

[[record]]
compound = "O=[N+]([O-])c1cccc(/C=N\\NS(=O)(=O)c2ccc(Cl)cc2)c1O"
reading_qualifier = "="
reported = 4.21

[[record]]
compound = "COC(=O)C(C(=O)C(=O)Nc1ccc([N+](=O)[O-])cc1[N+](=O)[O-])c1nc2ccc(Cl)cc2[nH]c1=O (stereo not given)"
reading_qualifier = "="
reported = 4.18

[[record]]
compound = "CCC(=O)C[P+](c1ccccc1)(c1ccccc1)c1ccccc1"
reading_qualifier = "="
reported = 4.16


###

Test system: CEM cells HIV-1 protection, formazan growth assay
Experiment: NCI AIDS Antiviral Assay
Details: measured here: growth of uninfected CEM cells
pIC50: −log10 of the molar value.
reported.metric: pIC50

[[record]]
molecule = "Nc1ncnc2c1[nH]c(=O)n2-c1ccccc1"
reading_qualifier = "="
reported = 3.75

[[record]]
molecule = "CC(C)(C)C1=NC(S)NC(CCC(=O)Nc2ccccc2[N+](=O)[O-])=C1 (stereo unspecified)"
reading_qualifier = "<"
reported = 3.16

[[record]]
molecule = "CC(=O)/C(=C/n1ccc(=O)[nH]c1=S)C(=O)Nc1ccc(Cl)cc1"
reading_qualifier = "="
reported = 3.81

[[record]]
molecule = "c1csc(C(NC2=NCCO2)C2CC2)c1 (stereo unspecified)"
reading_qualifier = "="
reported = 3.78

[[record]]
molecule = "CCOC(=O)COc1ccc(/C=C/C(=O)c2ccc(OC)cc2)cc1"
reading_qualifier = "="
reported = 4.95

[[record]]
molecule = "O=C(O)C1CSCN1 (stereo unspecified)"
reading_qualifier = "<"
reported = 3.33


###

Tested on: CEM cells HIV-1 protection, formazan growth assay
Assay: NCI AIDS Antiviral Assay
pEC50: −log10 of the molar value.
pEC50 listing for selected compounds.
reported.metric: pEC50

[[record]]
compound = "CC(C)C[C@H]1[C@@H](OCc2ccccc2)COS(=O)(=O)N1[C@H](C)c1ccccc1"
target = "CEM cells HIV-1 protection, formazan growth assay"
reported_metric = "pEC50"
reported = "< 3.70"

[[record]]
compound = "O=C(Cl)c1ccc([As](=O)(O)O)cc1"
target = "CEM cells HIV-1 protection, formazan growth assay"
reported_metric = "pEC50"
reported = "< 3.70"

[[record]]
compound = "COc1ncc(C#CC(=O)c2ccccc2)c(OC)n1"
target = "CEM cells HIV-1 protection, formazan growth assay"
reported_metric = "pEC50"
reported = "< 5.70"

[[record]]
compound = "Cn1nc(-c2cccc(-c3nn(C)c(=NCCO)s3)n2)sc1=NCCO"
target = "CEM cells HIV-1 protection, formazan growth assay"
reported_metric = "pEC50"
reported = "< 3.70"

[[record]]
compound = "O=C(CCC(=O)c1ccsc1)c1ccsc1"
target = "CEM cells HIV-1 protection, formazan growth assay"
reported_metric = "pEC50"
reported = "< 3.70"

[[record]]
compound = "CC(C)N(C(=O)C12C3C4C5C3C1(C(=O)N(C(C)C)C(C)C)C5C42)C(C)C (stereo unspecified)"
target = "CEM cells HIV-1 protection, formazan growth assay"
reported_metric = "pEC50"
reported = "< 4.00"


###

System: CEM cells HIV-1 protection, formazan growth assay
Experiment: NCI AIDS Antiviral Assay
Details: measured here: growth of uninfected CEM cells
IC50 listing for selected compounds.
reported.metric: IC50 (µM)

[[record]]
compound = "CCCc1cc(=O)oc2c3c(c4c(c12)OC(C)(C)[C@H](O)[C@@H]4O)O[C@@H](C)[C@H](C)[C@@H]3O"
reading_qualifier = "="
reported = 87.1

[[record]]
compound = "COc1ccc(N=C(C)c2ccncc2)cc1"
reading_qualifier = "="
reported = 10.5

[[record]]
compound = "O=C(O)[C@H]1[C@@H](C2CCCCC2)O[C@@H](C2CCCCC2)O[C@H]1C(F)(F)F"
reading_qualifier = "="
reported = 191

[[record]]
compound = "C/C(C=O)=C\\c1cccc(F)c1"
reading_qualifier = ">"
reported = 158

[[record]]
compound = "COC(=O)N1CCc2c(nc(N(C)CCO)[nH]c2=O)C1"
reading_qualifier = "="
reported = 708

[[record]]
compound = "Cn1ccnc1C(c1nccn1C)C(C)(C)[N+](=O)[O-]"
reading_qualifier = ">"
reported = 339

[[record]]
compound = "COCN1C(=O)[C@@H]2CCCN2C(=O)c2ccc(N)cc21"
reading_qualifier = ">"
reported = 200

[[record]]
compound = "CC1NCC(O)C(O)C1O (stereo unspecified)"
reading_qualifier = ">"
reported = 49

[[record]]
compound = "[N-]=[N+]=Nc1nnc(CCCCc2nnc(N=[N+]=[N-])o2)o1"
reading_qualifier = "="
reported = 138

[[record]]
compound = "O=C(Nc1ccc(Cl)c(Cl)c1)C(=O)C(C(=O)c1ccccc1-c1ccccc1)C1OC(=O)c2ccccc21 (stereo unspecified)"
reading_qualifier = "="
reported = 29.5

[[record]]
compound = "COc1ccc(NC(=O)CCc2cc(-c3ccc(O)c(OC)c3)nc(NC#N)n2)cc1"
reading_qualifier = ">"
reported = 224

[[record]]
compound = "Cc1ccc(-c2c(C#N)c(-c3ccc(Cl)cc3)c(C#N)c(=O)n2NS(=O)(=O)c2ccccc2)cc1"
reading_qualifier = "="
reported = 29.5

[[record]]
compound = "COC(=O)c1cc(Cc2cc(C(c3cc(Cc4cc(Cl)c(O)c(C(=O)OC)c4)c(O)c(C(=O)OC)c3)C(Cl)(Cl)Cl)cc(C(=O)OC)c2O)cc(Cl)c1O"
reading_qualifier = ">"
reported = 200

[[record]]
compound = "CCC1=C(c2ccc(OC)cc2)CCC2(CCNC2)C1C (stereo unspecified)"
reading_qualifier = "="
reported = 10.5

[[record]]
compound = "NC1(C(=O)O)CCCC1c1ccccc1 (stereo unspecified)"
reading_qualifier = ">"
reported = 6.61

[[record]]
compound = "O=C1Oc2ccccc2C(=O)/C1=C/N1C(=O)/C(=C/c2ccc3c(c2)OCO3)SC1=S"
reading_qualifier = "="
reported = 20.4

[[record]]
compound = "COc1ccc(C2=NOC(N)(c3ccc(OC)cc3)C2)cc1 (stereo unspecified)"
reading_qualifier = ">"
reported = 200

[[record]]
compound = "O=C1CC2(c3ccccc3)ON=C(c3ccccc3)N2c2ccccc2N1 (stereo unspecified)"
reading_qualifier = "="
reported = 85.1

[[record]]
compound = "C=CCNC(=S)N1c2ccccc2NC(=O)CC1C (stereo unspecified)"
reading_qualifier = ">"
reported = 661

[[record]]
compound = "C=C1C2CC[C@H]3C45CO[C@@](O)(C(O)[C@@H]4C(C)(C)C=CC5=O)C3(C2)C1OC(C)=O (stereo partly specified)"
reading_qualifier = "="
reported = 23.4

[[record]]
compound = "CC(=O)Nc1cccc2cc(S(=O)(=O)O)ccc12"
reading_qualifier = ">"
reported = 200


The reported measurements were obtained from PubChem BioAssay AID179.
